Target: Dihydrofolate reductase (Rattus norvegicus)
Sequence (Q920D2 whole entry): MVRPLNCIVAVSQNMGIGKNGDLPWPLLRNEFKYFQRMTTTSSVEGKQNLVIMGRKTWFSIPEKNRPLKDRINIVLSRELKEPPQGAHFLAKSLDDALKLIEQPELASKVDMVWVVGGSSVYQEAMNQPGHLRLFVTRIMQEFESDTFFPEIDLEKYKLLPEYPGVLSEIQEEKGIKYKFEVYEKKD
recorded-endpoint: IC50 (µM)
API: value field is a number in µM; no unit string.

Exam item: IC50 lookup needed for COc1ccc(OC)c(NCc2c(Br)sc3nc(N)nc(N)c23)c1 , thanks.
Marked response: 33

====

Target: Bifunctional dihydrofolate reductase-thymidylate synthase (Toxoplasma gondii, UniProt Q07422)
Sequence (Q07422 whole entry): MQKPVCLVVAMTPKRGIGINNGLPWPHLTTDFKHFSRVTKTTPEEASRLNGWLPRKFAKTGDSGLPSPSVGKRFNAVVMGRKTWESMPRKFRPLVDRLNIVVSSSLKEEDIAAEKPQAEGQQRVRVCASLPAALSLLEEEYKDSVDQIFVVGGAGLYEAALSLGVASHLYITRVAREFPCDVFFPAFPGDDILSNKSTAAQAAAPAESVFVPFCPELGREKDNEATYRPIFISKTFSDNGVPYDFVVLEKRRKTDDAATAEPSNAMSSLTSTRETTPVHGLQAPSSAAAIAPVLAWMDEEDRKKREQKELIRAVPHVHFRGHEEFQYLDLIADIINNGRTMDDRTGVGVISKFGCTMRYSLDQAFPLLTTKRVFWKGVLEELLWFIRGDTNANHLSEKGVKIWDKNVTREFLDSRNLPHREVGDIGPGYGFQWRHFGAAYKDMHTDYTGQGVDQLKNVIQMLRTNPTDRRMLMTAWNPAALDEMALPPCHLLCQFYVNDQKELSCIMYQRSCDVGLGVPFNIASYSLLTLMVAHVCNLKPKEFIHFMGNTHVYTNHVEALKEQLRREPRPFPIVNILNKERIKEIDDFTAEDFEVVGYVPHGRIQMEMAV
IC50: recorded values
Please state the figure in µM; there is no need to write the unit.

COc1cc(NCc2c(Br)sc3nc(N)nc(N)c23)cc(OC)c1OC; 34
Nc1nc(N)c2c(CNc3cc(Cl)c(-n4cccc4)c(Cl)c3)c(Br)sc2n1; 26

Exam item: Query (compound): COc1cc(Cc2cnc(N)nc2N)cc(OC)c1Br ; field requested: IC50
Marked response: 0.017

Exam item: Try this compound too: COc1cc(N(C)Cc2c(Br)sc3nc(N)nc(N)c23)cc(OC)c1OC
Marked response: 127
